For each record, write down the corresponding pKd.
- measured on: rASIC1A channel (Rattus norvegicus)
- Construct: cDNA isolated from rat brain codes for a protein of 526 amino acids; expressed in transfected cells; host or cells: Xenopus laevis oocytes injected with cRNA
- Sequence (P55926 whole entry): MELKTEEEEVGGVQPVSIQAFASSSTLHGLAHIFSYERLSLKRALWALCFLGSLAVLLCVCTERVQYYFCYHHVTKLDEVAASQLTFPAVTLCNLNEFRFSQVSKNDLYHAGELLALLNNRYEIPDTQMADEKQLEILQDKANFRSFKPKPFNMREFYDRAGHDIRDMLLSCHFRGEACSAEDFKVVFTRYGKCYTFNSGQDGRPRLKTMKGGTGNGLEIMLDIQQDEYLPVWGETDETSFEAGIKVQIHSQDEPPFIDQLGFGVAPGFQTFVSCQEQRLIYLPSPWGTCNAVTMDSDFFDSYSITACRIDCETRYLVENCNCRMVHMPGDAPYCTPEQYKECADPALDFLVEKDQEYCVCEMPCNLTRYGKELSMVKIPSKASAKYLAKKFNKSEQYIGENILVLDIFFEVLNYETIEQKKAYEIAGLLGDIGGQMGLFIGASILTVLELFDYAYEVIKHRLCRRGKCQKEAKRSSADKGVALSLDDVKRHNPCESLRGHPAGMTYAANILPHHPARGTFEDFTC
- assay explanation: Proton-activated rASIC1A current in Xenopus oocytes (voltage clamp and outside-out patch)
- Type: cell-based
- reported conditions: H+-activated current, pH change from pH 7.4 to pH 6, -70 mV, oocytes; outside-out patch at 0 mV; read-out: Kd, reversible block of the rASIC1A channel
Interpret pKd as the negative base-10 log of the concentration measured in mol/L.

Find the measured pKd of NC(=NCc1ccccc1)NC(=O)c1nc(Cl)c(N)nc1N and report it. 5.00

Supply reported pKd belonging to this molecule: CCN(c1nc(N)c(C(=O)NC(=N)N)nc1Cl)C(C)C [EIPA, ethylisopropylamiloride] 5.00

----------
- measured on: rASIC1A channel (Rattus norvegicus)
- Construct: cDNA isolated from rat brain codes for a protein of 526 amino acids; expressed in transfected cells; host or cells: Xenopus laevis oocytes injected with cRNA
- assay explanation: Proton-activated rASIC1A current in Xenopus oocytes (voltage clamp and outside-out patch)
- Type: cell-based
readout kind: Kd
# do not omit the unit; it follows the number

Input N=C(N)NC(=O)c1nc(Cl)c(N)nc1N [amiloride] , output reported Kd. 10 µM

----------
- measured on: hASIC3 (Homo sapiens)
- Sequence (Q9UHC3 whole entry): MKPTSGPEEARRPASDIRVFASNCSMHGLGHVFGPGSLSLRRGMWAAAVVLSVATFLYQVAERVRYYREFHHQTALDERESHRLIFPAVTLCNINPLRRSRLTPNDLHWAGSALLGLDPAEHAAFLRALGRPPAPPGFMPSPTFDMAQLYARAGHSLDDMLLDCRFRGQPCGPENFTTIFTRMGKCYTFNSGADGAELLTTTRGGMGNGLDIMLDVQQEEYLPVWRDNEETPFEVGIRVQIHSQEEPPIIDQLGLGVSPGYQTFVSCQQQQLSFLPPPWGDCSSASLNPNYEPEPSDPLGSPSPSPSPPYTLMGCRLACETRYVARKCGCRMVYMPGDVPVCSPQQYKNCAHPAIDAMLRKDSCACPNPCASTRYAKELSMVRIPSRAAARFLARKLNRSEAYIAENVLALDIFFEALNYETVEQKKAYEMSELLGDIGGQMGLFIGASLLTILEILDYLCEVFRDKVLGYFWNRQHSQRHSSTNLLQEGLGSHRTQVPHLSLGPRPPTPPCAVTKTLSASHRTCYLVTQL
- assay explanation: H+-gated hASIC3 whole-cell current in transfected COS cells
- reported conditions: transient current, COS cells, read-out: KD, inhibition of the transient hASIC3 current
- Procedure: The vector containing the hASIC3 coding sequence was linearized with NotI and blunt ended with T4 DNA polymerase. After inactivation of the T4 DNA polymerase, the hASIC3 coding sequence was excised with EcoRI and subsequently subcloned into the EcoRI/SalI (blunt) digested PCI expression vector (Promega). […] Ion currents were recorded using either the whole cell or outside-out patch-clamp technique. […]
readout kind: Kd (µM)
Report as a plain number; the unit µM is understood.

Could you please provide reported Kd for N=C(N)NC(=O)c1nc(Cl)c(N)nc1N [amiloride] ? Thanks! 15.9

Recorded values, source patent US6287859A.
